- Tested on: SR leukemia
- Assay comment: NCI tumour cell line growth inhibition, 48 h; in the data active means GI50 below about 0.43 µM; inactive means the rest
Outcome codes: active, inactive

Compound	Cat
N#Cc1c2ccccc2c2nnc3ccc(C(F)(F)F)cc3n12	active
Cc1cc(C(O)(c2ccc(Nc3ccccc3)cc2)c2ccc(Nc3ccc(S(=O)(=O)O)cc3)cc2)ccc1N (stereo not drawn)	inactive
O=C1/C(=C\c2ccccc2)CN(C(=O)c2ccccc2)C/C1=C\c1ccccc1	active
CCC(C)CC(C)C(=O)c1c(O)ccn(O)c1=O (stereo not drawn)	inactive
COc1ccc(C2CC(c3ccc4ccccc4c3)=NN2c2nc(O)c(C3=c4cc(OC)ccc4=NC3=O)s2)cc1 (stereo not drawn)	active
COc1cc(/C=C/C(=O)c2c(C)nc3ccccc3c2C)ccc1OCCCCOc1cc2c(cc1OC)C(=O)N1CCC[C@H]1C=N2	active
O=C1c2cccnc2C(=O)c2c1c(C(=O)OCCc1ccccn1)c1ccccn21	active
Oc1ccc(Cc2ccc(O)c(C3CC(c4ccc(Cl)cc4)=NN3)c2)cc1C1CC(c2ccc(Cl)cc2)=NN1 (stereo not drawn)	inactive

###

- Tested on: UACC-62 melanoma
- Assay comment: NCI tumour cell line growth inhibition, 48 h; in the data active = GI50 below about 0.43 µM; inactive = the rest
Outcome codes: 1 (active), 0 (inactive)

Molecule	Assayed system	Cat
CCOc1cc(/C=C/C(=O)C(C(=O)/C=C/c2ccc(OC(=O)CNc3nnc(C)s3)c(OCC)c2)C(=O)CNc2nnc(C)s2)ccc1OC(=O)CNc1nnc(C)s1	UACC-62 melanoma	0
FC(F)(F)c1cc(-c2ncn(/C=C\c3nnco3)n2)cc(C(F)(F)F)c1	UACC-62 melanoma	1
NCCCn1c2c(c3ccc([N+](=O)[O-])cc3c1=O)C(=O)c1cc(F)ccc1-2	UACC-62 melanoma	1
CCC(C)CC(C)C(=O)c1c(O)ccn(O)c1=O (configuration not stated)	UACC-62 melanoma	0
Oc1ccc(Cc2ccc(O)c(C3CC(c4ccc(Cl)cc4)=NN3)c2)cc1C1CC(c2ccc(Cl)cc2)=NN1 (configuration not stated)	UACC-62 melanoma	0
COc1ccc(/C=C/C(=O)c2ccc(Nc3nc(Nc4ccc(F)cc4)nc(Nc4ccc(Cl)cc4)n3)cc2)cc1	UACC-62 melanoma	0
CCOC(=O)[C@@H](C)C[C@H](Cc1ccccc1)NC(=O)c1csc([C@@H](C[C@H](C(C)C)N(C)C(=O)[C@@H](NC(=O)[C@H]2C[C@H](O)CCN2C)C(C)C)OC(C)=O)n1	UACC-62 melanoma	1
O=C(/C=C/c1nnc2n(Cc3ccccc3)c(=O)c3c4c(sc3n12)CCCC4)c1ccccc1	UACC-62 melanoma	0
CCOC(=O)Nc1ccc2c(c1)N(C(=O)CCN(CC)CC)c1ccccc1S2	UACC-62 melanoma	0
CN(CSc1ccc(Cl)cc1)c1ccc(CSc2ccc(Cl)cc2)cc1	UACC-62 melanoma	0
Cc1ccc(NC(=O)c2nc(S(C)(=O)=O)oc2-c2ccc(F)cc2)cc1Nc1ccc2ncn(C)c(=O)c2c1	UACC-62 melanoma	0
COc1cc2c3c(n(CCCN4CCCNCC4)c(=O)c2cc1OC)-c1cc2c(cc1C3=O)OCO2	UACC-62 melanoma	0
Cc1cc(C(O)(c2ccc(Nc3ccccc3)cc2)c2ccc(Nc3ccc(S(=O)(=O)O)cc3)cc2)ccc1N (configuration not stated)	UACC-62 melanoma	0
Brc1ccc(Nc2nc3ccccc3nc2Nc2ccc(Br)cc2)cc1	UACC-62 melanoma	0
CCCCN(CC)CCCCCCCCCCN1CCCc2cc(OC)ccc21	UACC-62 melanoma	0
CCN(CC)CC(O)COc1c(Br)c(Br)c(Br)c2c1OC(C)(C)C2 (configuration not stated)	UACC-62 melanoma	0
CCN1C(=O)N(CC)C2C1NC(=S)N2/N=C/C=C/c1ccccc1OC (configuration not stated)	UACC-62 melanoma	1

###

- Test system: HCC-2998 colon
- Assay comment: NCI tumour cell line growth inhibition, 48 h
Please enter Satisfied where TGI is greater than or equal to 30 µM, and Not satisfied where it is lower.

Compound	Cat
O=C1C=CC(=O)c2cc(Sc3ccccc3)c(=O)c(Sc3ccccc3)cc21	Satisfied
COc1ccccc1N1C(=O)CSC1c1cc(OC)c(OC)c(OC)c1 (stereo unspecified)	Satisfied
C=C1c2[nH]c3ccccc3c2CC(C(=O)O)N1C(O)c1ccc(S(=O)(=O)O)cc1 (stereo unspecified)	Satisfied
Cc1ccc(S(=O)(=O)ON2C(=O)c3c(N)c(C#N)c(-c4ccccc4)c(-c4ccccc4)c3C2=O)cc1	Satisfied
C=CC(OC(=O)C(C)C)c1ccc(OC(=O)C(C)C)cc1 (stereo unspecified)	Not satisfied
N#CCC1C2CC3C(C2=O)C13 (stereo unspecified)	Satisfied
Brc1ccc(Nc2nc3ccccc3nc2Nc2ccc(Br)cc2)cc1	Not satisfied
O=c1nc(N2CCCC2)nc(N2CCCC2)s1	Satisfied
NCCCNc1nc2ccc(Cl)cc2c2c(=O)c3cc(F)ccc3sc12	Not satisfied
CCc1nc2ccccc2c(=O)n1/N=C(\N=Nc1ccc(Cl)cc1)c1ccccc1	Satisfied

###

- Test system: RPMI-8226 leukemia
- Assay comment: NCI tumour cell line growth inhibition, 48 h
# maps each entry to its TGI

Molecule	TGI
CO[C@H]1O[C@@H]2OC3(C)CCC4[C@H](C)CCC([C@H]1C)[C@]42OO3 (stereo not given in full)	> 100 µM
COc1cc(/C=C/C(=O)c2c(C)nc3ccccc3c2C)ccc1OCCCCOc1cc2c(cc1OC)C(=O)N1CCC[C@H]1C=N2	0.585 µM
O=C1NC(=O)C2C1C1C=C3c4ccccc4N(c4ccccc4)C32[C@H]2C(=O)NC(=O)[C@@H]12 (stereo not given in full)	> 100 µM
Cc1cc(C)c(NC(=O)/C=C/c2ccccc2)c(C)c1	> 100 µM
CCOC(=O)/C(=C/c1ccccc1Br)P(=O)(OCC)OCC	3.36 µM
CCCOc1ccc(/C=N/Nc2cc(C)nc3ccc(Cl)cc23)cc1	3.99 µM
Cc1cc(=O)oc2cc(OC(=O)Nc3ccccc3)ccc12	62.4 µM
c1ccc2cc(CNCCCCNCCCNCc3ccc4ccccc4c3)ccc2c1	0.712 µM
O=C(/C=C/c1ccc(O)c(O)c1)NC(COC(=O)/C=C/c1ccc(O)c(O)c1)C(=O)O (stereo not given)	> 100 µM
O=c1c(O)cc2c(O)oc3c(=O)c(O)c(O)c4c(O)oc1c2c43	> 100 µM
Cc1ccc(C(=O)N2CCCCC2)cc1N=NN(C)C	> 100 µM
O=C(c1ccccc1)C(Nc1ccc2ccccc2c1)c1ccccc1 (stereo not given)	33.7 µM
O=[N+]([O-])c1ccc(/C(Cl)=C/c2ccc(/C=C(\Cl)c3ccc([N+](=O)[O-])cc3[N+](=O)[O-])cc2)c([N+](=O)[O-])c1	> 100 µM
COc1ccccc1N1C(=O)CSC1c1cc(OC)c(OC)c(OC)c1 (stereo not given)	> 100 µM
CCC1c2cc3n(c(=O)c2COC1O)Cc1c-3nc2ccccc2c1Cl (stereo not given)	> 100 µM
O=c1nc(N2CCCC2)nc(N2CCCC2)s1	> 100 µM
Oc1ccc(Cc2ccc(O)c(C3CC(c4ccc(Cl)cc4)=NN3)c2)cc1C1CC(c2ccc(Cl)cc2)=NN1 (stereo not given)	> 100 µM
Cc1cnc2c(c1)C(=O)N(c1ccc([N+](=O)[O-])cc1)S2(=O)=O	> 100 µM
CCc1cccc(CC)c1NC(=O)CC1SC(N)=NC1=O (stereo not given)	> 100 µM
COCC12CCC(OC)C34C5CC6(O)C(OC)C=C(C5C6OC(=O)c5ccccc5)C(C(OC)C13)C4N(C)C2 (stereo not given)	> 100 µM

###

- System: OVCAR-4 ovarian
- Assay comment: NCI tumour cell line growth inhibition, 48 h; in the data active = GI50 below about 0.43 µM; inactive = the rest
Outcome codes: active, inactive

Smiles record	Cat
CCC(C)(C)[C@H](NC(=O)[C@H]1CCCCN1C)C(=O)N(C)[C@H](C[C@@H](OC(C)=O)c1nc(C(=O)N[C@@H](Cc2ccccc2)C[C@H](C)C(=O)O)cs1)C(C)C	active
COc1cc2c(cc1OCCCCn1c(-c3cccs3)nc3ccccc31)N=C[C@@H]1CCCN1C2=O	inactive
O=C(O)c1ccc(C(=O)O)c(C(=O)O)c1.[NH-]C1CCCCC1[NH-].[Pt+2]	inactive

###

- Tested on: CAKI-1 renal
- Assay comment: NCI tumour cell line growth inhibition, 48 h; in the data active = GI50 below about 0.43 µM; inactive = the rest
Outcome codes: TRUE (active), FALSE (inactive)

Molecule	Cat
O=C(c1cccs1)c1nc2cc(Cl)ccc2[n+]([O-])c1C(F)(F)F	FALSE
NCCCn1c2c(c3ccc([N+](=O)[O-])cc3c1=O)C(=O)c1cc(F)ccc1-2	TRUE
COc1cc2c3c(n(CCCN4CCCNCC4)c(=O)c2cc1OC)-c1cc2c(cc1C3=O)OCO2	TRUE
O=C1NC(=O)C(c2ccccc2)=C1Nc1ccccc1	FALSE
CCOC(=O)Nc1ccc2c(c1)N(C(=O)CCN(CC)CC)c1ccccc1S2	FALSE
N#Cc1c2ccccc2c2nnc3ccccc3n12	FALSE
N#Cc1c2ccccc2c2nnc3ccc(C(F)(F)F)cc3n12	FALSE
FC(F)(F)c1ccc(-c2ncc(-c3ccc(C(F)(F)F)cc3)c(NCc3cc(C(F)(F)F)cc(C(F)(F)F)c3)n2)cc1	FALSE
CCN(CC)CC(O)COc1c(Br)c(Br)c(Br)c2c1OC(C)(C)C2 (stereo not drawn)	FALSE
O=C1c2cccnc2C(=O)c2c1c(C(=O)OCCc1ccccn1)c1ccccn21	TRUE
O=C1C(=C([O-])c2ccccc2)C(=O)c2ccccc21.O=C1C(=C([O-])c2ccccc2)C(=O)c2ccccc21.[Co+2]	FALSE
CC(=O)OCC1OC([Se-])C(OC(C)=O)C(OC(C)=O)C1OC(C)=O.N#CCC[PH+](CCC#N)CCC#N.[Au+] (stereo not drawn)	FALSE
CCCCN(CC)CCCCCCCCCCN1CCCc2cc(OC)ccc21	FALSE
